target entity: Indoleamine 2,3-dioxygenase 1 (Homo sapiens)
experimental protocol: Inhibition of human IDO1 pre-incubated for 10 mins before L-Trp as substrate addition and measured after 30 mins by colorimetry
condition: read-out: IC50
Sequence (P14902 whole entry): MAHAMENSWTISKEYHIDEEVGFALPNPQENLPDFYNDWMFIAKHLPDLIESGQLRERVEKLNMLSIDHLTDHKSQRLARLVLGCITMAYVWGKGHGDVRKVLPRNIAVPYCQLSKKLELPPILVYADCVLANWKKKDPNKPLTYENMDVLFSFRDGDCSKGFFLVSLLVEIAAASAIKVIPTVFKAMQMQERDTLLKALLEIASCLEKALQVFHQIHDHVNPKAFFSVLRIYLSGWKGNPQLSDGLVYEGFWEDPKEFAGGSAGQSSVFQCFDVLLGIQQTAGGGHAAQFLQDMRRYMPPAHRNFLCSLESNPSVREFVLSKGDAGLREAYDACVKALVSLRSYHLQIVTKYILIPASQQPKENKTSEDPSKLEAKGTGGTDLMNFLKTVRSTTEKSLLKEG
// values below are reported IC50
Answer with the value and then the unit.

- chemical string: "S=c1[nH]c(-c2ccc(Br)cc2)cs1"
  endpoint value: "3.4 µM"
- chemical string: "Sc1nc(-c2ccc(Cl)cc2)cs1"
  endpoint value: "2.6 µM"

Lab note: next compound to report on.
Prompt: Fill in the recorded IC50 for this compound, with Indoleamine 2,3-dioxygenase 1 (Homo sapiens) as test system: Cc1ccc(-c2csc(S)n2)cc1
Response: 5.9 µM

###

target entity: Indoleamine 2,3-dioxygenase 1 (Homo sapiens, UniProt P14902)
experimental protocol: Inhibition of human IDO1 at 100 uM pre-incubated for 10 mins before L-Trp as substrate addition and measured after 30 mins by colorimetry
Sequence (P14902 whole entry, looked up): as the sequence (P14902 whole entry) above
Rule: inhibition of 40% or more gives label 1; anything lower gives label 0.

- chemical string: "Clc1nc(-c2ccccc2)cs1"
  group: "label 0"
- chemical string: "COc1ccc(-c2c[nH]c(=S)s2)cc1"
  group: "label 0"
- chemical string: "S=c1[nH]c(-c2cccnc2)cs1"
  group: "label 1"
- chemical string: "Sc1nc(-c2ccccc2)cs1"
  group: "label 1"
- chemical string: "Cc1ccc(-c2csc(S)n2)cc1"
  group: "label 1"
- chemical string: "O=C(O)c1ccccc1-c1csc(=S)[nH]1"
  group: "label 0"
- chemical string: "Cc1ccc(-c2c[nH]c(=S)s2)cc1"
  group: "label 0"
- chemical string: "Oc1nc(-c2ccccc2)cs1"
  group: "label 0"

Prompt: inhibition >= 40% for OCc1cccc(-c2csc(=S)[nH]2)c1 ?
Response: label 0

Prompt: hey, is inhibition for this one >= 40%? COc1ccccc1-c1csc(=S)[nH]1
Response: label 1

Prompt: Is it the case that COc1ccc(-c2csc(=S)[nH]2)cc1 has inhibition reaching or exceeding 40%?
Response: label 1

Prompt: State whether the measured inhibition reaches 40%, counting equality as reaching it, for N#Cc1ccc(-c2csc(=S)[nH]2)cc1
Response: label 0

Prompt: # check: inhibition of S=c1[nH]cc(-c2cccc(Br)c2)s1 is greater than or equal to 40%
Response: label 1

Prompt: In plain terms: is recorded inhibition at least 40% for S=c1[nH]c(-c2ccncc2)cs1 ?
Response: label 0

Prompt: Can Fc1ccccc1-c1c[nH]c(=S)s1 be said to have inhibition at or above 40%?
Response: label 0

Prompt: Does the reported inhibition for Fc1ccc(-c2csc(S)n2)cc1 fall at or above the 40% mark?
Response: label 1

Prompt: Determine whether measured inhibition meets or exceeds 40% for Brc1nc(-c2ccccc2)cs1
Response: label 0

Prompt: Say whether Fc1ccccc1-c1csc(=S)[nH]1 shows inhibition of 40% or more.
Response: label 1

Prompt: Is reported inhibition greater than or equal to 40% here: Fc1cccc(-c2csc(=S)[nH]2)c1
Response: label 0

Prompt: Test whether the compound S=c1[nH]cc(-c2ccccc2)s1 records inhibition of 40% or higher.
Response: label 0

###

target entity: Indoleamine 2,3-dioxygenase 1 (Homo sapiens, UniProt P14902)
experimental protocol: Inhibition of human IDO1 at 10 uM pre-incubated for 10 mins before L-Trp as substrate addition and measured after 30 mins by colorimetry
Reported inhibition values follow for various compounds
Kindly provide the numeric value in % only, without the unit symbol.

- chemical string: "S=c1[nH]c(-c2ccc(Br)cc2)cs1"
  target entity: "Indoleamine 2,3-dioxygenase 1 (Homo sapiens, UniProt P14902)"
  endpoint value: 88
- chemical string: "Cc1ccc(-c2csc(S)n2)cc1"
  target entity: "Indoleamine 2,3-dioxygenase 1 (Homo sapiens, UniProt P14902)"
  endpoint value: 39
- chemical string: "Sc1nc(-c2ccccc2)cs1"
  target entity: "Indoleamine 2,3-dioxygenase 1 (Homo sapiens, UniProt P14902)"
  endpoint value: 35

# evaluate next
Prompt: Notebook entry, Indoleamine 2,3-dioxygenase 1 (Homo sapiens, UniProt P14902) assay: inhibition of Sc1nc(-c2ccc(Cl)cc2)cs1 = ?
Response: 79
